Source of measurements: patent US20140057895A1

- target.desc: 5-HT4 receptor (Cavia porcellus)
- Construct: striatum was isolated which was cryopreserved at −80° C. until use; from tissue; host or cells: guinea pig (Slc-Hartley) striatum membranes
- Sequence (O70528 whole entry): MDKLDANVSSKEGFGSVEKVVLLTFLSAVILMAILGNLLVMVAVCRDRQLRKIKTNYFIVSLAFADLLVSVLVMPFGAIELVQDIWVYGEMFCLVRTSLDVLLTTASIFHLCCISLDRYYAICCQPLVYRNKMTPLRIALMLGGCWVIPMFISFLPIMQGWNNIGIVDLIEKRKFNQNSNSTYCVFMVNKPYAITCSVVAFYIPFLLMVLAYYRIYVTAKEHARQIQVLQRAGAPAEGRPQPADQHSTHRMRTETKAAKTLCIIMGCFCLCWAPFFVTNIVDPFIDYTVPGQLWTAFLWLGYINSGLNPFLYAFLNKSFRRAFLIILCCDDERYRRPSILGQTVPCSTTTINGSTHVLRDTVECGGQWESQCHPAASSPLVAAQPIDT
- assay.protocol: Test Example 3: Guinea pig 5-HT4 receptor binding assay, [3H]-GR113808, striatum membranes (Table 98)
- run.conditions: Guinea pig 5-HT4 receptor binding assay, [3H]-GR113808, striatum membranes; mean value of each group; read-out: IC50
Where a name gives a salt, the structure may show the parent alone.
assay.endpoint: pIC50
Give only the number. pIC50 is defined as minus log10 of concentration in molar units.

Solved cases below.
- molecule: "CC(=O)N1CCC(N2CCC(c3nc(-n4nc(C(F)(F)F)c5cccc(F)c54)no3)CC2)CC1"
  target.desc: "5-HT4 receptor (Cavia porcellus)"
  reported.measurement: 7.16
- molecule: "CC(=O)N1CCOC(CN2CCC(c3nc(-n4nc(C(C)C)c5cccc(F)c54)no3)CC2)C1 (stereo not drawn)"
  target.desc: "5-HT4 receptor (Cavia porcellus)"
  reported.measurement: 7.45
- molecule: "CC(C)c1nn(-c2noc(C3CCN(CC4CCOCC4)CC3)n2)c2c(F)c(F)ccc12 [Example 453, trifluoroacetate]"
  target.desc: "5-HT4 receptor (Cavia porcellus)"
  reported.measurement: 7.55
- molecule: "CC(C)c1nn(-c2noc(C3CCN(C4CCC4)CC3)n2)c2cccc(Cl)c12"
  target.desc: "5-HT4 receptor (Cavia porcellus)"
  reported.measurement: 6.89

[ask] So what pIC50 did CC(=O)N1CCC(N2CCC(c3nc(-n4nc(C(C)C)c5ccc(Cl)cc54)no3)CC2)CC1 get with 5-HT4 receptor (Cavia porcellus)?
[reply] 6.85

[ask] What do you get for CC(=O)N1CCC(N2CCC(c3nc(-n4nc(C(C)C)c5ccc(C)cc54)no3)CC2)CC1 [Example 462, trifluoroacetate] ?
[reply] 6.96

[ask] What do you get for CC(=O)N1CCC(N2CCC(c3nc(-n4nc(C(C)C)c5c(O)ccc(F)c54)no3)CC2)CC1 ?
[reply] 7.60

[ask] What do you get for CC(C)c1nn(-c2noc(C3CCN(C4CCC4)CC3)n2)c2cc(Cl)ccc12 ?
[reply] 6.89

---

- target.desc: human 5-HT4b receptor (Homo sapiens)
- Construct: expressed in transfected cells; host or cells: CHO cells (G418 selection)
- Sequence (Q13639 whole entry): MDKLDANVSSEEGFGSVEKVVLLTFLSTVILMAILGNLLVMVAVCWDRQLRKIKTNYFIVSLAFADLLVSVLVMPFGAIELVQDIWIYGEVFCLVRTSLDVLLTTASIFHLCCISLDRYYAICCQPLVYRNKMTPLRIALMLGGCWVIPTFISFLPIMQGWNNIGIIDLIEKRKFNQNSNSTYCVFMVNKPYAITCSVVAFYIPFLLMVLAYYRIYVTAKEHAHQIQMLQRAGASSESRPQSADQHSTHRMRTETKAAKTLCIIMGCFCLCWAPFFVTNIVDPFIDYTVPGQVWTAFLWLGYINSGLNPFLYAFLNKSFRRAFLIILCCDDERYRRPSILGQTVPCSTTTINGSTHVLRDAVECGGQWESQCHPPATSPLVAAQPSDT
- assay.protocol: Test Example 2: Serotonin 4 (5-HT4) receptor agonist activity assay, cAMP HTRF in CHO cells (Table 97)
- Assay type: cell-based
- run.conditions: concentration showing 50% of IA; cAMP in CHO cells expressing human 5-HT4b receptor; mean value
Structures can show the parent of a compound that is named as a salt.
assay.endpoint: log10 EC50 (log10 of the value in nM)
All values: log10 EC50 [nM].

Solved cases below.
- compound: "CCc1nn(-c2noc(C3CCN(CC4CCCO4)CC3)n2)c2ccccc12 (stereo not shown) [Example 132]"
  log10 EC50: 1.17
- compound: "CCc1nn(-c2noc(C3CCN(CCC4CCCO4)CC3)n2)c2cc(F)ccc12 (stereo not shown) [Example 131]"
  log10 EC50: 0.97
- compound: "CC(=O)N1CCC(N2CCC(c3nc(-n4nc(C(C)C)c5cccc(F)c54)no3)CC2)CC1.Cl [Example 232, hydrochloride]"
  log10 EC50: 0.41
- compound: "CC(C)c1nn(-c2noc(C3CCN(C4CCN(C(=O)CO)CC4)CC3)n2)c2c(F)cccc12 [Example 242]"
  log10 EC50: 0.34
- compound: "CCc1nn(-c2noc(C3CCN(CCCOC)CC3)n2)c2cc(F)ccc12 [Example 92]"
  log10 EC50: 0.81

[ask] What value of log10 EC50 has been reported for the following compound? CCc1nn(-c2noc(C3CCN(CC4CCN(C(=O)OC)CC4)CC3)n2)c2cc(F)ccc12 [Example 171]
[reply] 1.49

[ask] What do you get for CCc1nn(-c2noc(C3CCN(C4CCN(C(=O)OC)CC4)CC3)n2)c2cc(F)ccc12 [Example 230] ?
[reply] 1.25

[ask] What do you get for CCC(C)N1CCC(c2nc(-n3nc(C4CC4)c4ccccc43)no2)CC1 (stereo not shown) [Example 102, trifluoroacetate] ?
[reply] 0.90

[ask] What do you get for COCCCN1CCC(c2nc(-n3nc(C4CC4)c4ccccc43)no2)CC1 [Example 88, trifluoroacetate] ?
[reply] 1.21

[ask] What do you get for CCc1nn(-c2noc(C3CCN(C[C@@H]4CCCN4C(=O)OC)CC3)n2)c2ccccc12 [Example 178] ?
[reply] 1.04
